Exercise: for every item that follows, state its recorded clearance.
- assay-summary: Pharmacokinetic study in Sprague Dawley rats
- Format: in vivo
- run-parameters: rat, plasma, iv, I.V. (1 mg/kg)
One number for each entry, in mL/min/kg.

# example entries with known answers
# smi, clearance (mL/min/kg)
measured = [
    ("[2H]C([2H])([2H])CC(=O)c1cnc(NC(=O)C2CC2)cc1Nc1nccc(-c2ncn(C([2H])([2H])[2H])n2)c1OC", 9.42),
    ("[2H]C([2H])([2H])CC(=O)c1cnc(Nc2ccc(C(C)(C)O)c(F)n2)cc1Nc1cccc(-c2ncn(C([2H])([2H])[2H])n2)c1OC", 33.1),
]

Request: # lookup: clearance of `[2H]C([2H])([2H])CC(=O)c1cnc(Nc2ccc(C(C)(C)O)c(F)n2)cc1Nc1nccc(-c2ncn(C([2H])([2H])[2H])n2)c1OC`
Result: 34.3
